Heads up, these compounds all have IC50 values measured for HPK1 (Homo sapiens (Human), UniProt Q92918).

Ask | # input compound: "CN(C)Cc1nc(Nc2ccc(-c3cnc4cc(F)ccn34)c3c2C(=O)NC3)ccc1S(C)(=O)=O" ; wanted: its IC50
Reply | < 100 nM

Ask | Likewise for C[C@@H]1CCn2c(-c3ccc(Nc4ccc(N5CCC(O)CC5)cn4)c4c3CNC4=O)cnc2C1 (single isomer, unassigned) ?
Reply | 100 to 1000 nM

Ask | Also "Cc1cnc2[nH]ccc2c1-c1ccc(Nc2ccc(N3CCN(C)CC3)cn2)c2c1CNC2=O" , if possible.
Reply | 100 to 1000 nM

###

subject of test: UniProtKB Q92918
pIC50: −log10 of the molar value.
measure: pIC50

Consider the worked cases shown below.
> print(dat)
                               query.smiles   subject.of.test  observed.value
1  CN(C)Cc1nc(Nc2cnc(-c3ccnc4c3ccn4C)c3c2C(=O)NC3)ccc1[C@H]1CCOC1  UniProtKB Q92918          > 7.00
2  C[C@@H]1CC[C@@](C)(O)CN1c1ccc(Nc2ccc(-c3cnn4c3CCCC4)c3c2C(=O)NC3)nc1  UniProtKB Q92918          > 7.00

Ask | Name the reported pIC50 value associated with the compound "Cc1cc(Nc2cnc(-c3ccnc4c3ccn4C)c3c2C(=O)NC3)nc(N2CC[C@@H]3CNC[C@@H]32)c1"
Reply | 6.00 to 7.00

Ask | // next record "CN1CCC(C)(c2cccc(Nc3cnc(-c4ccnc5c4ccn5C)c4c3C(=O)NC4)n2)CC1"
Reply | 6.00 to 7.00

###

subject of test: HPK1 (Homo sapiens (Human), UniProt Q92918)
Sequence (Q92918 whole entry): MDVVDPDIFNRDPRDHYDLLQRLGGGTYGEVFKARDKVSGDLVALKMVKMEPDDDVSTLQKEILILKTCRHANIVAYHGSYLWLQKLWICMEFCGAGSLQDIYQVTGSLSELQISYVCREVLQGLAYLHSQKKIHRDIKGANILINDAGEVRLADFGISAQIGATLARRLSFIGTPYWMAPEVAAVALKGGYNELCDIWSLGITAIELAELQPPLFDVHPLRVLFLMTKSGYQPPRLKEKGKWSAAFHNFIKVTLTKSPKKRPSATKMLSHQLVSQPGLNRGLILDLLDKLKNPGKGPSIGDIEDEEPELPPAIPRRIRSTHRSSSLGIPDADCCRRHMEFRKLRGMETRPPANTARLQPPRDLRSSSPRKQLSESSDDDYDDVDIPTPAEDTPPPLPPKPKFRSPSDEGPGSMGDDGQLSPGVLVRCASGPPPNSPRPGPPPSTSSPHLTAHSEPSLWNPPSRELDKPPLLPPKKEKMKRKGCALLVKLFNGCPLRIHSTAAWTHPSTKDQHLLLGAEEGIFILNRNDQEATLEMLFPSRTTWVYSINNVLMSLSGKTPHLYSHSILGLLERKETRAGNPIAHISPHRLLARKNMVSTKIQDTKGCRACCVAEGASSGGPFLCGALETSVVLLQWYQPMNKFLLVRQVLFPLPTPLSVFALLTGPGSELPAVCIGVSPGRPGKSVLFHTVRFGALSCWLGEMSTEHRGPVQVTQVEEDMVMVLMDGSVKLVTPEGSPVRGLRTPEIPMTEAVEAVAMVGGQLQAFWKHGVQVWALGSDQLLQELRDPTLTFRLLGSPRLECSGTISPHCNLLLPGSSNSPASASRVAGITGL
# IC50 values compiled below

# count of solved cases: 7
> print(dat)
                                   compound                           subject.of.test  observed.value
1  Cn1ccc2c(-c3ncc(Nc4cccc(N5CC[C@H](N6CCCC6)C5)n4)c4c3CNC4=O)ccnc21  HPK1 (Homo sapiens (Human), UniProt Q92918)        < 100 nM
2  C[C@H]1C[C@H](O)CCN1c1ccc(Nc2ccc(-c3cnc4cnccn34)c3c2C(=O)NC3)nc1  HPK1 (Homo sapiens (Human), UniProt Q92918)        < 100 nM
3  Cc1ccn2c(-c3ccc(Nc4ccc(N5CCC[C@H](O)C5)cn4)c4c3CNC4=O)cnc2c1  HPK1 (Homo sapiens (Human), UniProt Q92918)        < 100 nM
4  O=C1NCc2c(-c3cnc4cnccn34)ccc(Nc3ccc(N4CCCC(O)CC4)cn3)c21 (centres unmarked)  HPK1 (Homo sapiens (Human), UniProt Q92918)        < 100 nM
5  COCC1CN(c2ccc(Nc3ccc(-c4cnc5cc(F)ccn45)c4c3C(=O)NC4)nc2CN(C)C)CCO1 (stereo in doubt)  HPK1 (Homo sapiens (Human), UniProt Q92918)        < 100 nM
6  COC[C@@H]1CN(c2ccc(Nc3ccc(-c4cnc5c(F)c(C)ccn45)c4c3C(=O)NC4)nc2)CCO1  HPK1 (Homo sapiens (Human), UniProt Q92918)        < 100 nM
7  Cn1ccc2c(-c3ccc(Nc4ccc(CS(C)(=O)=O)cn4)c4c3CNC4=O)ccnc21  HPK1 (Homo sapiens (Human), UniProt Q92918)        < 100 nM

Next compound, please.
Ask | Param item = "CN(C)CCc1nc(Nc2ccc(-c3cnc4cc(F)ccn34)c3c2C(=O)NC3)ccc1N1CCOCC1" ; retrieve measured IC50.
Reply | < 100 nM
